Substrate: CC(C)=CCC/C(C)=C/CC/C(C)=C/CO[P@@](=O)(O)OP(=O)(O)O
Assay summary: steady-state kinetics of purified enzyme (details in supplement)
Format: biochemical, Streptomyces coelicolor
Reported conditions: Mg2+-dependent enzyme; assay conditions in supplement
Measured property: Km (µM)
Write the number in µM without appending the unit.

Entry Gd11olS (germacradien-11-ol synthase; N-terminal domain of geosmin synthase) (Streptomyces coelicolor A3(2); G188S) (protein, N-terminal domain, residues 1-366 of geosmin synthase; codon-optimized synthetic gene in pET28a, expressed in E. coli, purified to homogeneity; tag details in supplement) MTQQPFQLPHFYLPHPARLNPHLDEARAHSTTWAREMGMLEGSGVWEQSDLEAHDYGLLCAYTHPDCDGPALSLITDWYVWVFFFDDHFLEKYKRSQDRLAGKAHLDRLPLFMPLDDAAGMPEPRNPVEAGLADLWTRTVPAMSADWRRRFAVATEHLLNESMWELSNINEGRVANPVEYIEMRRKVSGAPWSAGLVEYATAEVPAAVAGTRPLRVLMETFSDAVHLRNDLFSYQREVEDEGELSNGVLVLETFFGCTTQEAADLVNDVLTSRLHQFEHTAFTEVPAVALEKGLTPLEVAAVGAYTKGLQDWQSGGHEWHMRSSRYMNKGERPLAGWQALTGPGTSAADVGALLADAVAQRARSYT , Km reported as 5.7

Source: paper PMC7886051
